Quick reference: Ratio IC50 of the listed items.
Assay: Selectivity index, ratio of IC50 for chloroquine-resistant Plasmodium falciparum W2 to IC50 for human TK10 cells
Set-up: species or system TK-10

| Molecule | Value Relation Sign | Ratio IC50 |
| --- | --- | --- |
| COc1ccc(C(=O)/C=C/c2ccc(C(=O)OC3O[C@@H]4O[C@]5(C)CC[C@H]6[C@H](C)CC[C@@H]([C@H]3C)[C@@]46OO5)cc2)cc1[N+](=O)[O-] (stereo not given in full) | > | 3010 |
| COc1ccc(C(=O)/C=C/c2ccc(C(=O)O)cc2)cc1OC | = | 1.7 |
| Cc1ccc(C(=O)/C=C/c2ccc(C(=O)O)cc2)o1 | = | 5.2 |
| O=C(O)c1ccc(/C=C/C(=O)c2ccc(Cl)c(Cl)c2Cl)cc1 | = | 0.4 |
| Cc1ccc(C(=O)/C=C/c2ccc(C(=O)O[C@@H]3O[C@@H]4O[C@]5(C)CC[C@H]6[C@H](C)CC[C@@H]([C@H]3C)[C@@]46OO5)cc2)o1 | = | 2451.7 |
